Test system: DeltatarO mutant
procedure summary: S. aureus survival, RN4220 and DeltatarO strains – OD600, teichoic acid synthesis inhibitors, primary screen (AID 463173)
condition notes: S. aureus RN4220 wild type/DeltatarO growth, OD600, 18 h, screened at 18.75 µg/mL (by protocol)
Hit rate of the full screen: of about 52,000 compounds, about 4,300 (8.3%) were called active. Rule as the data show it: active = survival mostly below about 52% (no sharp cut-off); inactive = mostly above about 56%. What follows is part of a selection rich in actives, with near analogues and random picks from the rest.
Response enum: active, inactive

Answered examples (3):
Cc1oc2c(cc(NS(=O)(=O)c3ccc(C(C)C)cc3)c3ccccc32)c1C(=O)OCc1ccccc1    inactive
COc1ccc(-c2cc3ccc(O)c(CN4CCC(C)CC4)c3oc2=O)cc1OC    active
Cc1ccc(C(=O)N2c3ccc(C)cc3C(C)(c3ccccc3)CC2(C)C)cc1 (configuration not stated)    active

**Query** In this assay, the call recorded for Cc1ccc(C(=O)N2CC(=O)NC(=O)C2)cc1 was what?
**Result** inactive

**Query** In this assay, the call recorded for CCOc1ccc(S(=O)(=O)Nc2cc3c(C(=O)OCc4ccccc4)c(C)oc3c3ccccc23)cc1 was what?
**Result** inactive

**Query** In this assay, the call recorded for Cc1cccc(Cn2cc(S(=O)(=O)c3cccc(Cl)c3)c(=O)c3cc(F)c(N4CCOCC4)cc32)c1 was what?
**Result** inactive

**Query** In this assay, the call recorded for Cc1ccc(Cl)cc1NC(=O)C1CCC(CNS(=O)(=O)c2cccc3nsnc23)CC1 (configuration not stated) was what?
**Result** inactive

**Query** In this assay, the call recorded for Cc1ccc(-c2csc(-c3nc(-c4ccc(Br)s4)cs3)n2)cc1 was what?
**Result** inactive

**Query** In this assay, the call recorded for CN(C)CCNC(=O)C(=O)NCC(c1ccc2c(c1)OCO2)N1CCOCC1 (configuration not stated) was what?
**Result** inactive

---

Test system: DeltatarO mutant
procedure summary: S. aureus survival, RN4220 and DeltatarO strains – OD600, teichoic acid synthesis inhibitors, primary screen (AID 463173)
condition notes: S. aureus RN4220 wild type/DeltatarO growth, OD600, 18 h, screened at 18.75 µg/mL (by protocol)
The campaign covered roughly 52,000 compounds. About 4,300 (8.3%) were called active. Rule as the data show it: active = survival mostly below about 52% (no sharp cut-off); inactive = mostly above about 56%. The entries come from a sample that favours actives as a whole.
Response enum: yes = active, no = inactive

COc1cc(C(=O)Nc2ccc(NC(=O)c3ccc(Br)cc3)cc2)cc(OC)c1OC    no
COc1ccc(-c2noc(-c3ccc(NC4CCCC4)c([N+](=O)[O-])c3)n2)cc1    no

**Query** In this assay, the call recorded for Cc1ccc(-n2ncc(C(=O)NCCCN3CCc4ccccc4C3)c2C2CCN(C(=O)OC(C)(C)C)CC2)cc1C was what?
**Result** no

**Query** In this assay, the call recorded for CC(=O)Nc1cc(-c2nc3cc(Cl)ccc3o2)ccc1C was what?
**Result** no

**Query** In this assay, the call recorded for Cc1ccc(-c2nc3ccccc3o2)cc1NC(=O)Cc1ccc(Cl)cc1 was what?
**Result** no

**Query** In this assay, the call recorded for Cc1ccc(CSc2n[nH]c(-c3ccccc3O)n2)cc1 was what?
**Result** no

**Query** In this assay, the call recorded for Cc1ccc(NC(=O)C(C)Sc2n[nH]c(-c3ccccc3O)n2)cc1 (stereo unspecified) was what?
**Result** yes

**Query** In this assay, the call recorded for COC(=O)c1csc(N)n1 was what?
**Result** no

**Query** In this assay, the call recorded for COc1cccc(NC(=O)C2CCCN(S(=O)(=O)c3cccc4nonc34)C2)c1 (stereo unspecified) was what?
**Result** no

**Query** In this assay, the call recorded for CC(=O)Nc1ccc(NC(=O)c2cc(CN3CCCC3)on2)cc1 was what?
**Result** no

**Query** In this assay, the call recorded for Cc1c(NC(=O)c2ccc(Br)o2)cccc1-c1nc2ccccc2o1 was what?
**Result** no

**Query** In this assay, the call recorded for CCc1ccc(NC(=O)NCCc2c(C)nn(C)c2C)cc1 was what?
**Result** no

**Query** In this assay, the call recorded for CC1CCN(c2nc3c(S(=O)(=O)c4cccc(Cl)c4)nnn3c3ccsc23)CC1 was what?
**Result** no

**Query** In this assay, the call recorded for Cc1ccc2oc(-c3ccc(Cl)c(NC(=O)c4cc5ccccc5o4)c3)nc2c1 was what?
**Result** yes

**Query** In this assay, the call recorded for CCc1ccc(NC(=O)Cn2c(C(=O)OC)cc3oc(C)cc32)cc1 was what?
**Result** no

**Query** In this assay, the call recorded for Cc1c(NC(=O)c2cccc3c(Cl)cccc23)cccc1-c1nc2ccccc2o1 was what?
**Result** no

Reference for the values: PubChem BioAssay AID463173
